- Test system: T-47D breast
- measurementNotes: NCI tumour cell line growth inhibition, 48 h
metric: TGI

Sample records with TGI:
compound	TGI
N/C(=N\O)c1ncc(-c2ccc(C(F)(F)F)cc2)c(NC2CCCCCC2)n1	16.8 µM
Nc1nc(N)c2cc(CNc3ccc(Cl)c(Cl)c3)ccc2n1	2.9 µM
CC(=O)OCC1C(C(C)OC(C)=O)CCC2C1CCC1(C)C(OC(C)=O)CCC21 (stereo not given)	65.7 µM
COc1cc(N=C(N)N=C(N)N)c2ncccc2c1	> 100 µM
O=C1C2=C(C(=O)c3c(O)ccc(O)c31)N(c1ccc(N3CCOCC3)nc1)Cc1ccccc1O2	0.9 µM

For "NS(=O)(=O)c1ccc(NNC(=O)c2cccc3c(=O)c4ccccc4[nH]c23)cc1" , write its TGI.
> 100 µM

For COc1cc2c(cc1OCCCCNC(=O)c1cc3ccccc3[nH]1)N=CC1CCCN1C2=O (stereo not given) , write its TGI.
> 100 µM

* * *

TGI overview
- Test system: SN12C renal
- measurementNotes: NCI tumour cell line growth inhibition, 48 h

Sample records with TGI:
molecule	TGI
CC(C)c1cc(C(C)C)c(S(=O)(=O)NN)c(C(C)C)c1	> 100 µM
N#CS/C(C(Cl)=C(Cl)Cl)=C(/Cl)[N+](=O)[O-]	4.92 µM
CCOC(=O)CC(=O)ON(C)C(=O)Cc1ccccc1	> 100 µM
NC(=O)c1cnc2sc3ccccc3n2c1=O	> 100 µM
COCCO	> 100 µM
Nn1c(CNc2ccc(-c3nnc(Nc4ccc(Cl)cc4)n3N)cc2)nnc1Nc1ccc(Cl)cc1	> 100 µM

For "CC/C(=N\Nc1nc2ccccc2n1C)c1ccccn1" , write its TGI.
12.7 µM

For "O=C(c1cc2ccccc2[nH]1)C(O)(c1cc2ccccc2[nH]1)c1cc2ccccc2[nH]1" , write its TGI.
> 246 µM

For CCOC(=O)C(SCCO)C(C(=O)OCC)n1ccc(N)nc1=O (configuration not stated) , write its TGI.
> 100 µM

* * *

- Tested on: UO-31 renal
- measurementNotes: NCI tumour cell line growth inhibition, 48 h
TGI overview
Answer in µM, number only, no unit symbol.

compound	resultUnit	TGI
C=C1CC[C@@H]2C(C)(C)[C@@H](O)CC[C@@]2(C)[C@@H]1COc1ccc2ccc(=O)oc2c1	µM	22.9

Proceed to the following item.
Report value only: TGI, UO-31 renal, COC1/C=C\C=C(/C)C(=O)NC2=CC(=O)C=C(C2=O)C(OC)C(C)CC(OC)C(OC)C(C)/C=C(/C)C1OC(N)=O (stereo not given)
30

* * *

Measured GI50 on EKVX NSCLC follows.

Report value only: GI50, EKVX NSCLC, "N#Cc1ccc(Oc2nccc(-c3c(-c4ccc(F)cc4)ncn3C3CCNCC3)n2)cc1"
> 25 µM

Report value only: GI50, EKVX NSCLC, "COC1=C(OC)C(=O)C(/C=C(\C)C(=O)O)=C(C)C1=O"
> 100 µM

Report value only: GI50, EKVX NSCLC, "O=C(CCCn1c2c(sc3ncccc32)c(=O)n2nnc(-c3ccccc3)c12)NCCc1cnc[nH]1"
15.2 µM

Report value only: GI50, EKVX NSCLC, "COc1cccc(Nc2nc(NNC(=O)Cc3ccccc3)nc(NNC(=O)c3ccncc3)n2)c1"
> 100 µM

Report value only: GI50, EKVX NSCLC, "C=C1CC[C@@H]2C(C)(C)[C@@H](O)CC[C@@]2(C)[C@@H]1COc1ccc2ccc(=O)oc2c1"
10.6 µM

Report value only: GI50, EKVX NSCLC, "O=C1Cc2cc(CCn3ccnc3)c(Cl)cc2N1"
0.613 µM

Report value only: GI50, EKVX NSCLC, "CCCCCCN(CCCCCC)CCCNc1nccc2ccccc12"
2.65 µM

* * *

TGI overview
- Test system: RXF 393 renal
- measurementNotes: NCI tumour cell line growth inhibition, 48 h
Answer in µM, number only, no unit symbol.

cpdSmiles	resultUnit	recordedNumber
Cc1csc2c(P(=O)(OC(C)C)OC(C)C)c(-c3ccccc3)cn12	µM	33.7
CC1=C(C(=O)Nc2cccc(C(F)(F)F)c2)C(c2ccc(O)cc2)C(C(=O)Nc2cccc(C(F)(F)F)c2)=C(C)N1	µM	36.9
Cc1ccc(/C=C(\C#N)n2nnc3cc(Cl)c(Cl)cc32)cc1	µM	5.69
Clc1ccccc1C(n1cc(Br)cn1)n1cc(Br)cn1	µM	34.4

Proceed to the following item.
For "CCOc1ccc(Cc2nccc3cc(OCC)c(OCC)cc23)cc1OCC" , write its TGI.
23.1

* * *

- Tested on: MDA-MB-231 breast
- measurementNotes: NCI tumour cell line growth inhibition, 48 h
// rule not met strictly below 5 µM in TGI; rule met otherwise

molecule	className
O=[N+]([O-])c1cc2n[nH]nc2c2nonc12	rule met

hey, is TGI for this one >= 5 µM? CN(C)CC(C(=O)c1ccccc1)c1ccccc1 (stereo not given)
rule met

hey, is TGI for this one >= 5 µM? "c1ccc(Cc2cccc3cc(-c4ccc(-c5ccccc5)cc4)[nH]c23)cc1"
rule met

hey, is TGI for this one >= 5 µM? "CC(=O)Nc1ccc2nncnc2c1"
rule met

hey, is TGI for this one >= 5 µM? "CCN(CC)CCNc1ccc([N+](=O)[O-])c2nc3ccccc3c(N)c12"
rule not met

* * *

- Tested on: ACHN renal
- measurementNotes: NCI tumour cell line growth inhibition, 48 h
metric: TGI

Sample records with TGI:
compound	metric	result
C=CCN1C(=O)/C(=c2\sc3n(c2=O)C2C(NN=3)N(CC)C(=O)N2CC)c2ccccc21 (centres undefined)	TGI	> 100 µM
O=C1/C(=C/c2ccc(O)cc2)NC(=S)N1CN1CCCCC1	TGI	> 100 µM
CSC1=Nc2c(c(C)c(-c3ccccc3)n2COC(CO)CO)C2=NC(=O)C(C)N12 (centres undefined)	TGI	> 100 µM
CCN1CCC[C@H]1c1cc(O)c2c(c1OC)C[C@H]1C[C@H]3[C@H](N)C(=O)C(C(N)=O)=C(O)[C@@]3(O)C(=O)C1=C2O	TGI	0.802 µM
COc1cc(/C=C/C(=O)C(=Cc2ccc(F)c(F)c2)C(=O)/C=C/c2ccc(O)c(OC)c2)ccc1O	TGI	19.9 µM
COc1ccc2nc(-c3ccc(OC(=O)N(C)C)cc3)cn2c1	TGI	> 100 µM

For "COc1ccc2c(c1)/C(=C(\C(Cl)=C(Cl)Cl)[N+](=O)[O-])N2" , write its TGI.
> 100 µM

For "CCN(CC)CCN1c2ccccc2Sc2ccc3ccccc3c21" , write its TGI.
29.2 µM

For COc1c(OC(C)=O)cc2c(OC(C)=O)c1CC(C)CC(OC)C(O)C(C)/C=C(\C)C(OC(N)=O)C(OC)/C=C\C=C(/C)C(=O)N2 (centres undefined) , write its TGI.
> 100 µM

* * *

- Tested on: SF-295 CNS
Parameter call: string, one of active, inactive

Recorded call for "Nc1nc(N)c2cc(CNc3ccc(Cl)c(Cl)c3)ccc2n1" ?
active

Recorded call for "CC1=C(N2CC2)C(=O)C(CO)=C(N2CC2)C1=O" ?
active

* * *

- Tested on: U251 CNS
- measurementNotes: NCI tumour cell line growth inhibition, 48 h
TGI overview

Sample records with TGI:
compound	TGI
COC(=O)[C@]12CC[C@@H](C)[C@H](C)[C@@H]1C1=CC[C@@H]3[C@@]4(C)C[C@@H](OC(=O)c5ccco5)[C@H](O)[C@@](C)(CO)[C@@H]4[C@H](O)C[C@@]3(C)[C@]1(C)CC2	4.21 µM
C=C1c2nc3ccccc3n2C=C(c2ccc(Cl)cc2)N1c1ccc(OCCN2CCOCC2)cc1	> 100 µM
COc1cc(/C=C2\C(=O)N(c3cccc(Cl)c3)C(c3ccccc3)S2(=O)=O)cc(OC)c1OC (centres undefined)	> 100 µM

Proceed to the following item.
For "COc1ccc2c(=O)c([Se]c3coc4cc(OC)ccc4c3=O)coc2c1" , write its TGI.
> 100 µM

* * *

log10 of TGI overview
- Tested on: SW-620 colon
- measurementNotes: NCI tumour cell line growth inhibition, 48 h
Reminder: these figures are log10 of reported TGI, in µM before transformation.

molecule	recordedNumber
CC/C(=N\Nc1nc2ccccc2n1C)c1ccccn1	1.18

Proceed to the following item.
Report value only: log10 of TGI, SW-620 colon, "CCN(CC)CCNc1ccc([N+](=O)[O-])c2nc3ccccc3c(N)c12"
0.28

* * *

- Test system: 786-0 renal
- measurementNotes: NCI tumour cell line growth inhibition, 48 h
metric: TGI

molecule	TGI
C=C1C(=O)OC2/C=C(\C)CC/C=C(/C)CC(OC(=O)/C(=C/CO)CO)C12 (centres undefined)	88.8 µM
CCOC(=O)C1=C(Nc2ccccc2)OC/C1=N\NC(=O)Cc1ccccc1	> 50 µM
CC(C)(O)[C@@H]1CCC(C)([C@H]2[C@@H](O)CC3(C)C4CC(OC5OC(CO)C(O)C(O)C5O)C5C(C)(C)[C@@H](OC6OCC(O)C(O)C6O)CC[C@@]56C[C@@]46CC[C@]23C)O1 (some centres undefined)	> 100 µM

Proceed to the following item.
For "O=C(c1cc(=O)c2ccc(O)cc2o1)c1ccc(Cl)cc1Cl" , write its TGI.
> 64.4 µM
